assay_system: human Arginine Vasopressin Receptor V2 (AVPR2) (Homo sapiens)
Sequence (P30518 whole entry): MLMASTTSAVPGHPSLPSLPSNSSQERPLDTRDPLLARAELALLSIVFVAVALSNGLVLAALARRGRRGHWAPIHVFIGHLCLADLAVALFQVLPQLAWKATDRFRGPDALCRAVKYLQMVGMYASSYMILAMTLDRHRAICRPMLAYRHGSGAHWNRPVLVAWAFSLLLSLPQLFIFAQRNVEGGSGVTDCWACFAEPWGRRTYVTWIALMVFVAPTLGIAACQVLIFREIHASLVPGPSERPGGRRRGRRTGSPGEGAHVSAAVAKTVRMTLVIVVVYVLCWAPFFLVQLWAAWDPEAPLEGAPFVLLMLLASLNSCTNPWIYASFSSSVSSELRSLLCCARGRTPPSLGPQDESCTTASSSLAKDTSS
test: Vasopressin V2 receptor antagonist assay (TR-FRET cAMP, 1321N1 cells)
recorded_metric: IC50

Data point: Clc1ccc2c(c1)CN(C1CC1)Cc1nnc(N3CC4(CN(c5ncccn5)C4)C3)n1-2 [Compound No. 225] ; IC50 = > 1 µM

###

assay_system: human Oxytocin Receptor (hOTR) (Homo sapiens)
Sequence (P30559 1-389): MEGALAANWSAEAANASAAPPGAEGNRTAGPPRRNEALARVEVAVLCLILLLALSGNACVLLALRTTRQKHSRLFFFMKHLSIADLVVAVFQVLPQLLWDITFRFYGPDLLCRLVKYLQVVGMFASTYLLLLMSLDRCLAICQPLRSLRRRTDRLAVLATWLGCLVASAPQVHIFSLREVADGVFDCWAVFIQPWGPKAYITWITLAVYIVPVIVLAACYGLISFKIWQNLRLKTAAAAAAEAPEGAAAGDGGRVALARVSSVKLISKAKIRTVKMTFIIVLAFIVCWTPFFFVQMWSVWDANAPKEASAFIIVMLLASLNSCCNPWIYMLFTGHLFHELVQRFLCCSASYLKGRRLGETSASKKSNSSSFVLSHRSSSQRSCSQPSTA
test: Oxytocin receptor antagonist assay (FLIPR calcium, CHEM-1-hOTR cells)
protocol_conditions: antagonism of oxytocin (EC80) response; read-out: OT IC50
pIC50: −log10 of the molar value.
recorded_metric: pIC50

Data point: `CN1Cc2cc(Cl)ccc2-n2c(nnc2[C@H]2CC[C@H](Oc3ccccn3)CC2)C1` ; pIC50 = < 6.00

###

assay_system: human Arginine Vasopressin Receptor 1a (AVPR1a) (Homo sapiens, UniProt P37288)
Construct: expressed in transfected cells; host or cells: CHO (Chinese Hamster Ovary) cells, kept under G418 selection
Sequence (P37288 whole entry): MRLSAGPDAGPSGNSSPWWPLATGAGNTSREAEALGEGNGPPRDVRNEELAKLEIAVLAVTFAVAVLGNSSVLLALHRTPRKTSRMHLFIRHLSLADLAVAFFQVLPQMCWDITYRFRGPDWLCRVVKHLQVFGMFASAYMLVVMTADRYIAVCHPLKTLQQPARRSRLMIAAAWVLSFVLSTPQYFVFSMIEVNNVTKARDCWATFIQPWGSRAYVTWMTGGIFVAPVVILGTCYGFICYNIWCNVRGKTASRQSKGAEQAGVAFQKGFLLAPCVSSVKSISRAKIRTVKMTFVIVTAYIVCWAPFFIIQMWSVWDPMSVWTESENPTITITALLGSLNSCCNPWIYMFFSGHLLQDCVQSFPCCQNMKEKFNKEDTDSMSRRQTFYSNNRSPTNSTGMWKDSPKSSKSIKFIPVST
test: Vasopressin V1a receptor antagonist assay (FLIPR calcium, CHO-AVPR1a cells)
Format: cell-based
protocol_conditions: antagonism of AVP (EC80) response; read-out: V1a IC50
pIC50: −log10 of the molar value.
recorded_metric: pIC50

Data point: CN1Cc2cc(Cl)ccc2-n2c(nnc2[C@H]2CC[C@H](Oc3ccccn3)CC2)C1 [balovaptan] ; pIC50 = > 7.00
